Reported activity change, negative = inhibition values are given for each entry in this list.
target: Cytochrome P450 3A4 (Homo sapiens) (UniProt P08684); test: Cytochrome P450 Family 3 Subfamily A Member 4 (CYP3A4) small molecule antagonists: luciferase reporter qHTS assay (AID 1671201); conditions: P450-Glo CYP3A4 enzyme, luciferin luminescence, 1 h; series mostly up to 115 µM; further: on the % scale 0 is the no-effect control and ±100 the full control effect; nearly all actives have a fitted effect of over 50% in size
Sequence (P08684 whole entry, looked up): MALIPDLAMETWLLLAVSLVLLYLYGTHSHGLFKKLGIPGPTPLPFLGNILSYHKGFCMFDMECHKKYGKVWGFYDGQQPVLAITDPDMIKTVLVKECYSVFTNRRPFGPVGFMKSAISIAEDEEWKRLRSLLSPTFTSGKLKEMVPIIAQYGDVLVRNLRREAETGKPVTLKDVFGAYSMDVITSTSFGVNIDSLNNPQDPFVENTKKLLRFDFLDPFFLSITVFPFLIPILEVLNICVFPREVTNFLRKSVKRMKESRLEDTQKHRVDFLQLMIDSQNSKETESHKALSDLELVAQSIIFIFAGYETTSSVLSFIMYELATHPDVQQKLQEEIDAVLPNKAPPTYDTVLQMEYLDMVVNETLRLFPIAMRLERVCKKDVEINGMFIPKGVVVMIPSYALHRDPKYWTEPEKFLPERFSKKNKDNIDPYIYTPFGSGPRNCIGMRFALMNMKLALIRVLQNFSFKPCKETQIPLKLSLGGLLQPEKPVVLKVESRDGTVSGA
Results filed as inconclusive are left out. Active and inactive are the calls of the source. The call rests on the fitted dose curve; in most records, active means well fitted inhibition curve with a large enough effect in the repeat runs; inconclusive means weak or mixed curves; inactive means no such curve, though single readings can be large or run the other way.

Recorded activity change, negative = inhibition, per entry:
[
  {
    "Line notation": "Clc1cc2c(cc1Cl)Oc1cc(Cl)c(Cl)cc1O2",
    "Result": "-0.782% [at 0.435 µM] (inactive)"
  },
  {
    "Line notation": "CC(=O)OCC1=C(C(=O)O)N2C(=O)[C@@H](N)[C@H]2SC1",
    "Result": "-8.01% [at 23.6 µM] (inactive)"
  },
  {
    "Line notation": "CCCCCCC(=O)CCCCCC/C=C/C[C@@H](O)[C@H](O)[C@@](N)(CO)C(=O)O",
    "Result": "24.6% [at 23.6 µM] (inactive)"
  }
]

The record that follows has no activity change, negative = inhibition shown yet.
Asked: Name the reported activity change, negative = inhibition value associated with the compound Brc1c(Br)c(Br)c(Br)c(Br)c1Br
Given back: 2.63% [at 10.5 µM] (inactive)
